Reference source: patent US20180016327A1

target_entity: T1, human C5 (human, UniProt P01031 19-673; P01031 678-1676, Beta and alpha chains are disulfide-linked and the protein is glycosylated.)
T1 construct: Either in-house recombinant C5 or plasma derived C5 (CALBIOCHEM) was used; also called recombinant human C5; plasma derived human C5
assay_details: Biacore, captured antibody, pH 7.4, 37 C;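 note: biacore binding response of anti-C5 antibody light chain variants captured on chip with human C5 injected, ACES running buffer containing 1.2 mM CaCl₂, parent light chain antibody set to 100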
reported_metric: % binding (parent = 100) (%)
Write it as a number; the unit % goes unstated.

// lookup % binding (parent = 100) for CFP0021 21L 30A (antibody, V domains shown) VH: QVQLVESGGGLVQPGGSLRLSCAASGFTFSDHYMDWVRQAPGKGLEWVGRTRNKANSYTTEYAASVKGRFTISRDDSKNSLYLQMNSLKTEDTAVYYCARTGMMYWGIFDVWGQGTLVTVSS VL: DIQMTQSPSSLSASVGDRVTITCRASQSIADDLAWYQQKPGKAPKLLIYHASTLQSGVPSRFSGSGSGTDFTLTISSLQPEDFATYYCQQHDSYPLTFGQGTKVEIK 76.9

// lookup % binding (parent = 100) for CFP0018 18L 93R (antibody, V domains shown) VH: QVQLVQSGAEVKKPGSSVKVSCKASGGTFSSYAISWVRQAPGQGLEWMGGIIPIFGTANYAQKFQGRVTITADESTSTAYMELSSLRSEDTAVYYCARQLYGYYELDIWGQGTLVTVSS VL: DIQMTQSPSSLSASVGDRVTITCRASQSISDDLAWYQQKPGKAPKLLIYEASSLQSGVPSRFSGSGSGTDFTLTISSLQPEDFATYYCQQYNRYPLTFGQGTKVEIK 136

// lookup % binding (parent = 100) for CFP0018 18L 53T (antibody, V domains shown) VH: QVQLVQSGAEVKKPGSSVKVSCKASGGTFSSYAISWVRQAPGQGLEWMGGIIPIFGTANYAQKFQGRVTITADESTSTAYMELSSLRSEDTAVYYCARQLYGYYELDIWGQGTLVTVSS VL: DIQMTQSPSSLSASVGDRVTITCRASQSISDDLAWYQQKPGKAPKLLIYEASTLQSGVPSRFSGSGSGTDFTLTISSLQPEDFATYYCQQYNSYPLTFGQGTKVEIK 44.5

// lookup % binding (parent = 100) for CFP0017 17L 30A (antibody, V domains shown) VH: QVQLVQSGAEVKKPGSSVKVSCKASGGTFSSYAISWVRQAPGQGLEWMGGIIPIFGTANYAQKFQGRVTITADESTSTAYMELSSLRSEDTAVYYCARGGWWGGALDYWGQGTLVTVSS VL: DIQMTQSPSSLSASVGDRVTITCRASQSIADDLAWYQQKPGKAPKLLIYHASSLQSGVPSRFSGSGSGTDFTLTISSLQPEDFATYYCQQSDSYPLTFGQGTKVEIK 79.9

// lookup % binding (parent = 100) for CFP0018 18L 30H (antibody, V domains shown) VH: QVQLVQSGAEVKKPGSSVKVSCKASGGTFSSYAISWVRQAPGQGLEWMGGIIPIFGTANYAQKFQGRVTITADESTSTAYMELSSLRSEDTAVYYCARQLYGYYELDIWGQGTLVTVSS VL: DIQMTQSPSSLSASVGDRVTITCRASQSIHDDLAWYQQKPGKAPKLLIYEASSLQSGVPSRFSGSGSGTDFTLTISSLQPEDFATYYCQQYNSYPLTFGQGTKVEIK 87.2
